molecular target: recombinant soluble homotrimeric HA of A/Anhui/1/05 (H5N1) (Influenza A virus A/Anhui/1/2005(H5N1)); experiment: trimeric HA microarray, transfection supernatant set 5; conditions: remark: other sources report otherwise
attribute-measured: Trimeric HA Binding: RLU (RLU)
Give bare numbers, in RLU.

Consider the following items and state reported Trimeric HA Binding: RLU for each.
1. TCN-539 (5056_A08) (antibody, V domains shown) VH: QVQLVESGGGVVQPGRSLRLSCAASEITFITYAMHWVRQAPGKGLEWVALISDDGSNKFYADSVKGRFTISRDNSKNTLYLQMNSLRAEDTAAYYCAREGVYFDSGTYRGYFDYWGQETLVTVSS VL: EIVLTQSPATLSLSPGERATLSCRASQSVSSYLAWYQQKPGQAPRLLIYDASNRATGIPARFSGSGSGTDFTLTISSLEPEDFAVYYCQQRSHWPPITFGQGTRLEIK
2. TCN-542 (5079_A16) (antibody, V domains shown) VH: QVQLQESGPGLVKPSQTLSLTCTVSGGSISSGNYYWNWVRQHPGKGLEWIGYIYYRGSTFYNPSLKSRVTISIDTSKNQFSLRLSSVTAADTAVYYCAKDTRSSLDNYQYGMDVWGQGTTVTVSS VL: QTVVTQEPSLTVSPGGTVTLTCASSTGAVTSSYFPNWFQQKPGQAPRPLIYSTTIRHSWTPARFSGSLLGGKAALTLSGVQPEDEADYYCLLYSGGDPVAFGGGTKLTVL
3. TCN-540 (5060_F05) (antibody, V domains shown) VH: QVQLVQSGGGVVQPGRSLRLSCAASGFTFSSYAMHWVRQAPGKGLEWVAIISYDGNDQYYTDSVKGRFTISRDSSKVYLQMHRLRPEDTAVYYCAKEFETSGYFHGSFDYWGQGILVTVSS VL: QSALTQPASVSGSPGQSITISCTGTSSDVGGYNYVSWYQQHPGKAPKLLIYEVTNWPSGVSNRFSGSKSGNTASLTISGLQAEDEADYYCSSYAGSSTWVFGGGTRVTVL
4. TCN-546 (5089_L08) (antibody, V domains shown) VH: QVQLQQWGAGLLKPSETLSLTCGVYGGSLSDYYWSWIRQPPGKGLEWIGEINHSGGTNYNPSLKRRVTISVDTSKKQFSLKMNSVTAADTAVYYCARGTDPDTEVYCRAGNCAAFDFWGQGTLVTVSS VL: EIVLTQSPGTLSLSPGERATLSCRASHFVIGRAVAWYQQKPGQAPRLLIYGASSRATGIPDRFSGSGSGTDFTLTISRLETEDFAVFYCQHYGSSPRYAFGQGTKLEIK

3240
7410
2190
33300

Values from patent US20150086555A1
